# maps each entry to its pIC50
target: NanoBiT® HiBiT non-luminescent peptide and LgBiT non-luminescent polypeptide (HiBiT/LgBiT bioluminescent complex) (Oplophorus gracilirostris, UniProt Q9GV45, A31E/A60N/A81I/C191F/D135N/E192K/F58L/F95D/G184S/G42A/G62A/G78A/G94A/G98A/H120P/I103V/I117V/I134L/K70R/L176M/L195S/L54V/L73R/L99Q/M102E/N171T/N193K/P142E/Q151K/Q38E/Q45L/T186S/V71I/Y165I); construct: fused on or other part: N-terminal Met-Val on LgBiT in place of the signal peptide (residues 1-27); The chain is split between residues 184 and 185 into LgBiT and the 11-residue HiBiT peptide (residues 185-195); C-terminal A196 is absent; experiment: biochemical
Sequence (Q9GV45 other isoform, or with tags, fused parts or gaps with the stated changes): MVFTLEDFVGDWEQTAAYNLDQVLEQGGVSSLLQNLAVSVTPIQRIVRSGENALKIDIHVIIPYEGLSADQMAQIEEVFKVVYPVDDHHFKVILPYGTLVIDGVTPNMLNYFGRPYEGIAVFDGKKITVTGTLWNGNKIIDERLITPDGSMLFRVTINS
# pIC50: negative log10 of molar concentration; output just the value

Some solved entries appear below for comparison.
> print(dat)
                            smiles.notation  recorded.number
1  COc1cccc(NC(=O)c2ccccc2NS(=O)(=O)c2ccc(C)cc2)c1             7.05
2  CC(=O)Nc1cccc(S(=O)(=O)Nc2ccccc2C(=O)Nc2ccc(C)cc2)c1             5.64
3  CCOC(=O)Cc1ccc(NC(=O)c2ccccc2NS(=O)(=O)c2ccc(C)cc2)cc1             6.24
4  CCCCc1ccc(S(=O)(=O)Nc2ccccc2C(=O)Nc2cc3ccccc3s2)cc1             6.77
5  O=C(Nc1cc2ccccc2s1)c1ccccc1NS(=O)(=O)c1ccc(CCCO)cc1             5.92

Query :: Data request, read-out pIC50, for Cc1ccc(S(=O)(=O)Nc2ccccc2C(=O)Nc2ccc(CCCCBr)cc2)cc1
Result :: 6.92
